B1: GAGE1 (parent)
chain: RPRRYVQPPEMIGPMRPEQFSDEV

variants of: B1; assay: protein stability index of a GFP-peptide fusion (GPS, HEK-293T) (PSI 1-6); higher = more stable; settings: c terminus: a fixed tail appended;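 note: lentivirally expressed fusions sorted by FACS into six bins by GFP to DsRed ratio, PSI derived from sequencing read proportions per bin multiplied by bin number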
The label depends only on protein stability index: Yes if it is at least 4, No if it is smaller.

Some solved entries appear below for comparison.
>>> label("RPRRKVQPPEMIGPMRPEQFSDEV [Y5K]")
"Yes"
>>> label("RPRRYVQPPEMIGPMRPEQFSDEL [V24L]")
"No"
>>> label("RPRRYVQPPEMIDPMRPEQFSDEV [G13D]")
"Yes"
>>> label("RPRRYVQPPEMIGPGRPEQFSDEV [M15G]")
"Yes"

Hello, I need to know if RPRRYVQPPKMIGPMRPEQFSDEV [E10K] has measured protein stability index not below 4. Thanks!
Yes

Quick check: does RPRRYVQPPEMIGPMRPEQFSKEV [D22K] have protein stability index greater than or equal to 4?
No

Please tell me: is the variant RPRRYVQPPEMIGPMRPEQFLDEV [S21L] at or over 4 in terms of protein stability index?
No

Reported protein stability index at or above 4? RPRRYVQPPEMIGPMRPEQFSDKV [E23K]
No

Could you please find out whether RPRRYVQPPEMIGSMRPEQFSDEV [P14S] has protein stability index that meets 4 or exceeds it?
Yes

For this variant, is measured protein stability index 4 or higher? RPRHYVQPPEMIGPMRPEQFSDEV [R4H]
No

Record RPRRYVQPPEMIGPMPPEQFSDEV [R16P] ; criterion: protein stability index no lower than 4. Met?
Yes

Exam item: decide whether the reported protein stability index for RPRRYVQPPEMIGDMRPEQFSDEV [P14D] is at least 4.
Yes

Entry VPRRYVQPPEMIGPMRPEQFSDEV [R1V] : is its protein stability index no less than 4?
No

Answer whether protein stability index of RWRRYVQPPEMIGPMRPEQFSDEV [P2W] is greater than or equal to 4.
No
